test target: human c-Met (human, UniProt P08581 25-1390)
Sequence (P08581 25-1390): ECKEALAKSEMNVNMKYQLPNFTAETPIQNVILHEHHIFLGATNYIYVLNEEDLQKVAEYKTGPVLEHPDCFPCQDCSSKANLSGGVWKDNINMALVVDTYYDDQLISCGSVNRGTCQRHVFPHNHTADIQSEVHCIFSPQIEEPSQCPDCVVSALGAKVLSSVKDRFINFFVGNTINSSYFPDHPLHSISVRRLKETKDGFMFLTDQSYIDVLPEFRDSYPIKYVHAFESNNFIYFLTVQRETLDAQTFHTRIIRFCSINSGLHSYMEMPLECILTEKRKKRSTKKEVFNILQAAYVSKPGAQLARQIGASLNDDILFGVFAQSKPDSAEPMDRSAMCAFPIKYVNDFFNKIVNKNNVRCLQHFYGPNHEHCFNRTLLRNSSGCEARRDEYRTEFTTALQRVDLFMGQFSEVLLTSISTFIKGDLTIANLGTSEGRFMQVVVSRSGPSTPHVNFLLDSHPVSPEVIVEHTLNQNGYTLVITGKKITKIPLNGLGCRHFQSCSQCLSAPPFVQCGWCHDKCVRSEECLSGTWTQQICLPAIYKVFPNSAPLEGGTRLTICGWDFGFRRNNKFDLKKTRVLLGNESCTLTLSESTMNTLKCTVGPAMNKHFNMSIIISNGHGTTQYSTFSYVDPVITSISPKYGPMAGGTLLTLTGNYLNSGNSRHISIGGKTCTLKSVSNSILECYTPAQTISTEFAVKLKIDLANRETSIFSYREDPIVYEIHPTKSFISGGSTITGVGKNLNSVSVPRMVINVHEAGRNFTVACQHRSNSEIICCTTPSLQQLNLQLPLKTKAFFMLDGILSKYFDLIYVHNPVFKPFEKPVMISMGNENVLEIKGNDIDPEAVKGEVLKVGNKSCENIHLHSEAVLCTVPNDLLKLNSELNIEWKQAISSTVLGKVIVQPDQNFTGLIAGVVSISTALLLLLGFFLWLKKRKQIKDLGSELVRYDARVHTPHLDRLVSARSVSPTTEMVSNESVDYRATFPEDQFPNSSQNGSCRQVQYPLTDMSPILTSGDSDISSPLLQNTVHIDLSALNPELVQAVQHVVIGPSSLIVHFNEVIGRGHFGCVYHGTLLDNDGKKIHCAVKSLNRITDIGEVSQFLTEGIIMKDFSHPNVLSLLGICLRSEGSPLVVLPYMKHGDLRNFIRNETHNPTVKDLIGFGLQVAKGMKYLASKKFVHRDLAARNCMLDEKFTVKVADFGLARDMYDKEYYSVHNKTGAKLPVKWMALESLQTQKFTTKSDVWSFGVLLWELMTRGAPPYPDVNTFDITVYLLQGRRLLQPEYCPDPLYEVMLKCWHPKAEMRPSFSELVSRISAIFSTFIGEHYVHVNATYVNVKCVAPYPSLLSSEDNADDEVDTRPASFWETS
assay info: cell-based or functional assay
Quick list: AVG CPM, 3H-thymidine incorporation in MKN45 cells, Ab 0.4 ng/mL per entry.
Only the number, expressed in CPM, is required.

Recorded results for 4 binders are shown here.
[[record]]
binder = "D11-S17Y (antibody, human IgG2, kappa, V domains shown, Human engineered IgG2 kappa c-Met antibody; also called D11-S17Y IgG2) VH: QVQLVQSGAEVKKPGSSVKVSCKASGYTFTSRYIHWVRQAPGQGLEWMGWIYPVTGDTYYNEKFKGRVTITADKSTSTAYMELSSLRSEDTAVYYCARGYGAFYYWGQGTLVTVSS VL: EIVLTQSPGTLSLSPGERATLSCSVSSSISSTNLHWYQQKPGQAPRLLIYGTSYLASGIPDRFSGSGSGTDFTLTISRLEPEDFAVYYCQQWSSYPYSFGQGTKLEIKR"
units_symbol = "CPM"
result = 45300

[[record]]
binder = "C8-co-16 (antibody, human IgG2, kappa, V domains shown, Named IgG4 kappa; also called C8-co-16 IgG4) VH: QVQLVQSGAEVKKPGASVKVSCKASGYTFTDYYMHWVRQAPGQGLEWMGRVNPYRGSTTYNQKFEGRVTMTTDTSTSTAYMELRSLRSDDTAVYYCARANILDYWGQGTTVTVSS VL: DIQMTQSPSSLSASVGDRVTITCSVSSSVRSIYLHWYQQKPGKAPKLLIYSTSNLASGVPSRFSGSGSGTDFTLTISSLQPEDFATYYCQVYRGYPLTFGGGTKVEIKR"
units_symbol = "CPM"
result = 47500

[[record]]
binder = "D11-C27G3 (antibody, human IgG2, kappa, V domains shown, Human engineered IgG2 kappa c-Met antibody; also called D11-27G3; D11-C27G3 IgG2) VH: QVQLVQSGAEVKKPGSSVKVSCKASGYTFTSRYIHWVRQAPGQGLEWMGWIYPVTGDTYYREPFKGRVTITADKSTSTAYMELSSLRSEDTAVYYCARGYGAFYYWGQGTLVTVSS VL: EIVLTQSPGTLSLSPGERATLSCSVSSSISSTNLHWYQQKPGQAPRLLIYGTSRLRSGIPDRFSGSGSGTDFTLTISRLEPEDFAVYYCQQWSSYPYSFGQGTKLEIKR"
units_symbol = "CPM"
result = 44000

[[record]]
binder = "D11-8B8 (antibody, human IgG2, kappa, V domains shown, Human engineered IgG2 kappa c-Met antibody; also called Mab D11-8B8; D11-8B8 IgG2) VH: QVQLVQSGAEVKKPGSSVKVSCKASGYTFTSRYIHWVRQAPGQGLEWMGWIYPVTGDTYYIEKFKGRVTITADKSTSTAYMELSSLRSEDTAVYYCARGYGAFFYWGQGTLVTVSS VL: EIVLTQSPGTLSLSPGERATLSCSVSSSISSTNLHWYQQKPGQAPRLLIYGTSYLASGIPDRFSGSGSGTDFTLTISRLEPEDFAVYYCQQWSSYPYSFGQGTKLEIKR"
units_symbol = "CPM"
result = 43300


// query Look at this binder and give its reported AVG CPM, 3H-thymidine incorporation in MKN45 cells, Ab 0.4 ng/mL. C8-6 (antibody, human IgG2, kappa, V domains shown, Named IgG4 kappa; also called C8-6 IgG4) VH: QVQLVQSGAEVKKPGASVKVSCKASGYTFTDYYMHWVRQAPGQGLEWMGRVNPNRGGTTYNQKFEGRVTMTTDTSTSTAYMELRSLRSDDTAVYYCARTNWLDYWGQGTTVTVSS VL: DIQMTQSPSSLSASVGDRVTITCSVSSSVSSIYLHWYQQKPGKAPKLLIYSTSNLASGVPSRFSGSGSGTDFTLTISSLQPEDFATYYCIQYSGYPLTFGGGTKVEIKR
// result 53400
